# Test system: MRSA strain Sa224c
# EXPERIMENT: MIC broth microdilution, antibiotic resistant strain panel
# Assay type: cell-based, Staphylococcus aureus
# RUN_CONDITIONS: Staphylococcus aureus; multi-resistant MRSA strain Sa224c; read-out: MIC
RECORDED_METRIC: MIC

- MOLECULE: "CCn1cc(C(=O)O)c(=O)c2cc(F)c(N3CCNCC3)cc21 [Norfloxacin]"
  TARGET_ENTITY: "MRSA strain Sa224c"
  MEAS_VALUE: "> 32 µg/mL"
- MOLECULE: "CC[C@H]1OC(=O)[C@H](C)[C@@H](O[C@H]2C[C@@](C)(OC)[C@@H](O)[C@H](C)O2)[C@H](C)[C@@H](O[C@@H]2O[C@H](C)C[C@H](N(C)C)[C@H]2O)[C@](C)(O)C[C@@H](C)C(=O)[C@H](C)[C@@H](O)[C@]1(C)O [Erythromycin]"
  TARGET_ENTITY: "MRSA strain Sa224c"
  MEAS_VALUE: "> 32 µg/mL"
- MOLECULE: "O=C1CN(/N=C/c2ccc([N+](=O)[O-])o2)C(=O)N1 [Nitrofurantoin]"
  TARGET_ENTITY: "MRSA strain Sa224c"
  MEAS_VALUE: "16 µg/mL"
- MOLECULE: "CN1CCN(c2cc3nc(C=Cc4ccc([N+](=O)[O-])o4)nc(Nc4ccc(O)cc4)c3cc2F)CC1 [Compound XV]"
  TARGET_ENTITY: "MRSA strain Sa224c"
  MEAS_VALUE: "1 µg/mL"
- MOLECULE: "O=[N+]([O-])c1ccc(C=Cc2nc(Nc3ccc(O)cc3)c3cc(F)ccc3n2)o1 [Compound V]"
  TARGET_ENTITY: "MRSA strain Sa224c"
  MEAS_VALUE: "≤ 0.06 µg/mL"
- MOLECULE: "Cc1onc(-c2ccccc2)c1C(=O)N[C@@H]1C(=O)N2[C@@H]1SC(C)(C)[C@@H]2C(=O)O [Oxacillin]"
  TARGET_ENTITY: "MRSA strain Sa224c"
  MEAS_VALUE: "32 to 64 µg/mL"

----------
# System: E. coli ATCC 25922
# EXPERIMENT: MIC broth microdilution (NCCLS)
# Type: cell-based, Escherichia coli
# RUN_CONDITIONS: Escherichia coli, ATCC25922, E. coli ATCC 25922 (Reference); read-out: MIC
// reported MIC for each item listed

- COMPOUND_STRUCTURE: "NC(=O)N/N=C/c1ccc([N+](=O)[O-])o1"
  MIC: "8 to 16 µg/mL"
- COMPOUND_STRUCTURE: "CO/N=C(\\C(=O)N[C@@H]1C(=O)N2C(C(=O)O)=C(COC(C)=O)CS[C@H]12)c1csc(N)n1"
  MIC: "0.06 to 0.12 µg/mL"
- COMPOUND_STRUCTURE: "C[C@@H](O)[C@H]1C(=O)N2C(C(=O)O)=C(S[C@@H]3CN[C@H](C(=O)N(C)C)C3)[C@H](C)[C@H]12"
  MIC: "0.015 to 0.06 µg/mL"

----------
// reported MIC for each item listed
# System: E. coli ATCC 25922
# EXPERIMENT: MIC broth microdilution (NCCLS)
# Assay type: cell-based, Escherichia coli
# RUN_CONDITIONS: Escherichia coli, ATCC25922, E. coli ATCC 25922 (Reference); read-out: MIC
RECORDED_METRIC: MIC

- COMPOUND_STRUCTURE: "CO/N=C(\\C(=O)N[C@@H]1C(=O)N2C(C(=O)O)=C(CSc3nc(=O)c(=O)[nH]n3C)CS[C@H]12)c1csc(N)n1"
  MEAS_VALUE: "0.03 to 0.06 µg/mL"
- COMPOUND_STRUCTURE: "O=C1OCCN1/N=C/c1ccc([N+](=O)[O-])o1"
  MEAS_VALUE: "1 to 2 µg/mL"
- COMPOUND_STRUCTURE: "CN(C)[C@@H]1C(O)=C(C(N)=O)C(=O)[C@@]2(O)C(O)=C3C(=O)c4c(O)cccc4[C@@](C)(O)[C@H]3C[C@@H]12"
  MEAS_VALUE: "1 to 2 µg/mL"
- COMPOUND_STRUCTURE: "CC1(C)S[C@@H]2[C@H](NC(=O)[C@H](N)c3ccccc3)C(=O)N2[C@H]1C(=O)O"
  MEAS_VALUE: "4 to 8 µg/mL"
